# Test system: SK-OV-3
# run-description: NCI tumour cell line growth inhibition, 48 h
Activity calls are given as the source filed them. No stated cut-off is given here; in the data, active = GI50 up to about 1.1 µM and inactive = higher.
Your response should consist of one outcome taken from active, inactive

[in] Hi team, can someone confirm the assay call for Cc1ccc(SCC(OCn2cnc3c(N)ncnc32)[C@H](C)F)cc1 (stereo partly specified) ?
[out] inactive

[in] Hi team, can someone confirm the assay call for O=[N+]([O-])c1ccc(/C(Cl)=C/c2ccc(/C=C(\Cl)c3ccc([N+](=O)[O-])cc3[N+](=O)[O-])cc2)c([N+](=O)[O-])c1 ?
[out] inactive

Next:
[in] Hi team, can someone confirm the assay call for S=C(Nc1ccc2c(c1)Cc1ccccc1-2)Nc1ccc2c(c1)Cc1ccccc1-2 ?
[out] inactive

[in] Hi team, can someone confirm the assay call for COc1ccc(NC(=O)CC/C(CC(=O)C(C)(C)C)=N\NC(=O)C(=O)NN)cc1 ?
[out] inactive

[in] Hi team, can someone confirm the assay call for CC(=O)Oc1ccc2c(c1)c1c(OC(C)=O)c3ccccc3c(OC(C)=O)c1n2Cc1cccc(C)c1 ?
[out] inactive

[in] Hi team, can someone confirm the assay call for CN(C)CCNc1ccc2c(=O)n(CCN(C)C)c(=O)n3c4ccc([N+](=O)[O-])cc4c(=O)c1c23 ?
[out] active

* * *

# System: HL-60
# run-description: NCI tumour cell line growth inhibition, 48 h
The source made the active and inactive calls. No stated cut-off is given here; in the data, active = GI50 up to about 1.1 µM and inactive = higher.
readout-type: GI50

These recorded examples may help you get a feel for the data.
[in] Read off the recorded GI50 for Cc1nc(C(N)=S)sc1C(=O)CC(=O)C(=O)Nc1nc2ccccc2[nH]1
[out] 46.8 µM (inactive)

[in] Read off the recorded GI50 for COc1ccc2oc(S(=O)(=O)N3CC(CCl)c4ccc([N+](=O)[O-])cc43)cc2c1 (stereo not drawn)
[out] 0.0579 µM (active)

[in] Read off the recorded GI50 for CCCCCCCC(=O)OCC1OC(n2cc(F)c(=O)[nH]c2=O)C(NC(=O)OCc2ccccc2)C(O)C1O (stereo not drawn)
[out] 40.3 µM (inactive)

[in] Read off the recorded GI50 for CC1(C)C(=O)N(O)C(C)(C)N1O
[out] > 10 µM (inactive)

[in] Read off the recorded GI50 for CN1C(=O)C(C)(C)C2(SC(C)(C)C2(C)C)N(C)C1=S (stereo not drawn)
[out] 96.2 µM (inactive)

Next:
[in] Read off the recorded GI50 for COC(=O)C1=C(O)C(C(=O)OC)[C@]2(O)[C@H](C(=O)OC)[C@H]1C[C@@H](c1cccc(OC)c1)[C@H]2C(=O)OC (stereo partly drawn)
[out] 0.207 µM (active)

[in] Read off the recorded GI50 for CC(=O)O[C@@]1(C)[C@@H](C)C(=O)O[C@@H]2CCN3CC=C(COC(=O)[C@]1(C)O)[C@H]23
[out] > 100 µM (inactive)

[in] Read off the recorded GI50 for O=C1C[C@H]2CCCN2[C@@H](c2ccccc2)C1
[out] > 100 µM (inactive)

[in] Read off the recorded GI50 for CN(C)C(=S)/N=c1\ss/c(=N\C(=S)N(C)C)n1C1CCCCC1
[out] 69 µM (inactive)

[in] Read off the recorded GI50 for Cc1cc2[nH]c3[nH]c(=O)[nH]c(=O)c3c2cc1C
[out] > 10 µM (inactive)

* * *

# Tested on: SNB-78
# run-description: NCI tumour cell line growth inhibition, 48 h
Calls of active or inactive are those of the source. Rule as the data show it: active = GI50 up to about 1.1 µM and inactive = higher.
readout-type: GI50

[in] Read off the recorded GI50 for CCOC(=N)CC(=O)Nc1cccc(Cl)c1
[out] 5.65 µM (inactive)

Next:
[in] Read off the recorded GI50 for O=C(Cc1nc2ccccc2s1)C(=O)Nc1cccc(Cl)c1
[out] > 100 µM (inactive)

[in] Read off the recorded GI50 for [N-]=[N+]=C1C(=O)C2CC3CC1CC2C3 (stereo not given)
[out] > 100 µM (inactive)

[in] Read off the recorded GI50 for COC1CC(C)C(OC)c2cc(O)cc(c2O)NC(=O)/C(C)=C/C=C\C(C)C(OC(N)=O)/C(C)=C\C(C)C1OC (stereo not given)
[out] 1.42 µM (inactive)

* * *

# Test system: ACHN
# run-description: NCI tumour cell line growth inhibition, 48 h
Active and inactive are the calls of the source. Cut-off read from the data, not from the text of the source: active = GI50 up to about 1.1 µM and inactive = higher.
Your response should consist of one outcome taken from 1.0 for active, 0.0 for inactive

The following compounds have reported results that may help.
[in] Hi team, can someone confirm the assay call for Cc1c(C(=O)Nc2ccccc2)nnn1-c1ccnc2cc(C(F)(F)F)ccc12 ?
[out] 0.0

[in] Hi team, can someone confirm the assay call for COc1ccc(/C=C/C(=O)c2cc(C(=O)O)c(OC)cc2OC)cc1OC ?
[out] 0.0

[in] Hi team, can someone confirm the assay call for CCOC(=O)/C(C(C)=O)=C1/N[C@H](C(=O)OCC)CS1 ?
[out] 0.0

[in] Hi team, can someone confirm the assay call for O=C(c1ccco1)N(C(=S)N1CCN(c2ccccc2)CC1)C1CCCCC1 ?
[out] 0.0

[in] Hi team, can someone confirm the assay call for O=C1/C(=C/c2ccc(OC(=O)c3ccc(Cl)cc3)cc2)CCC/C1=C\c1ccc(OC(=O)c2ccc(Cl)cc2)cc1 ?
[out] 0.0

[in] Hi team, can someone confirm the assay call for CN(C)c1ccc(/C=C(\NC(=O)c2ccccc2)C(=O)NC(Cc2c[nH]c3ccccc23)C(=O)O)cc1 (stereo unspecified) ?
[out] 0.0

[in] Hi team, can someone confirm the assay call for CCOC(=O)C(SCCO)C(C(=O)OCC)n1cnc2c(N)ncnc21 (stereo unspecified) ?
[out] 0.0

[in] Hi team, can someone confirm the assay call for CC(=O)C(=NNc1ccc(-n2c(C)nc3ccc(Br)cc3c2=O)cc1)C(C)=O ?
[out] 0.0

[in] Hi team, can someone confirm the assay call for C1CCN2CC3CCCN4CCCC(C2C1)C34 (stereo unspecified) ?
[out] 0.0

[in] Hi team, can someone confirm the assay call for CC1(C)C(=O)N(O)C(C)(C)N1O ?
[out] 0.0

Next:
[in] Hi team, can someone confirm the assay call for Cn1c2c(c3ccccc31)CCN(CCCN1CCN(c3ccccc3)CC1)C2=O ?
[out] 0.0

[in] Hi team, can someone confirm the assay call for CC/C(CC(=O)CCC(=O)Nc1ccc(C)c(C)c1)=N\NC(=O)c1cc2ccccc2cc1O ?
[out] 0.0

[in] Hi team, can someone confirm the assay call for COc1ccc(OC)c2nc3c(C(=O)NCCN(C)C)cccc3nc12 ?
[out] 0.0

* * *

# Tested on: HT-29
# run-description: NCI tumour cell line growth inhibition, 48 h
Calls of active or inactive are those of the source. No stated cut-off is given here; in the data, active = GI50 up to about 1.1 µM and inactive = higher.
Your response should consist of one outcome taken from true (active), false (inactive)

The following compounds have reported results that may help.
[in] Hi team, can someone confirm the assay call for Nc1nc(-c2ccccc2)cc(-c2ccccc2O)n1 ?
[out] false

[in] Hi team, can someone confirm the assay call for C/C(=C\COP(=O)(O)OP(=O)(O)O)CC/C=C(\C)CNc1c(F)c(F)c(F)c(F)c1F ?
[out] false

[in] Hi team, can someone confirm the assay call for CCOC(=O)C(=[N+]=[N-])C(=O)C1(C(=O)OCC)CCN(C(=O)c2ccccc2)C1=O (configuration not stated) ?
[out] false

[in] Hi team, can someone confirm the assay call for COC1(C)Cc2c(c(C)c(O)c3c2C(=O)C=C(Cl)C3=O)O1 (configuration not stated) ?
[out] false

[in] Hi team, can someone confirm the assay call for COc1ccc(OC)c2nc3c(C(=O)NCCN(C)C)cccc3nc12 ?
[out] false

Next:
[in] Hi team, can someone confirm the assay call for CC1(C)CC2C(=O)c3ccccc3NC2c2ccccc21 (configuration not stated) ?
[out] false

[in] Hi team, can someone confirm the assay call for O=C(Oc1ccccn1)c1cc2cc(CCl)ccc2oc1=O ?
[out] false

* * *

# Test system: MOLT-4
# run-description: NCI tumour cell line growth inhibition, 48 h
Activity calls are given as the source filed them. Rule as the data show it: active = GI50 up to about 1.1 µM and inactive = higher.
Your response should consist of one outcome taken from active, inactive

The following compounds have reported results that may help.
[in] Hi team, can someone confirm the assay call for Cn1c2c(c3ccccc31)CCN(CCCN1CCN(c3ccccc3)CC1)C2=O ?
[out] inactive

[in] Hi team, can someone confirm the assay call for Cc1nc(C(N)=S)sc1C(=O)CC(=O)C(=O)Nc1nc2ccccc2[nH]1 ?
[out] inactive

[in] Hi team, can someone confirm the assay call for NC(C(=O)O)C(N)C(=O)O (stereo unspecified) ?
[out] inactive

[in] Hi team, can someone confirm the assay call for Cc1cccc(C)c1NC(=O)C1C(=O)N(c2c(C)cccc2C)C(=O)/C1=N\N (stereo unspecified) ?
[out] inactive

[in] Hi team, can someone confirm the assay call for Nc1ccc(-c2nc3ccccc3s2)cc1Br ?
[out] inactive

[in] Hi team, can someone confirm the assay call for C1CCN2CC3CCCN4CCCC(C2C1)C34 (stereo unspecified) ?
[out] inactive

Next:
[in] Hi team, can someone confirm the assay call for COc1ccc(/C=C/C(=O)c2cc(C(=O)O)c(OC)cc2OC)cc1OC ?
[out] inactive

[in] Hi team, can someone confirm the assay call for COc1ccc(/C=C2/C(=O)N(/C=C3\C(=O)Oc4ccccc4C3=O)/C(=N/C(C)=O)N2C)cc1OC ?
[out] inactive
